Data origin, for the record: ChEMBL document CHEMBL4513216

experiment_summary: Toxicity liver stage against HepG2, at 10uM
Format: cell-based
Set-up: test concentration 10 uM, cell line HepG2-A16-CD81EGFP
test_parameters: human, HepG2-A16-CD81EGFP cells; read-out: INHIBITION
quantity_name: cytotoxicity at 10 µM (%)
Give a bare numeral; the unit % is implied.

C/C=C(\C)CN1C[C@H](NC(=O)c2cnc(O)cn2)C[C@H]1C(=O)NCC :: 7.31
CC1CN(C)CCN1C(=O)c1ccc(-n2cnnc2)cc1 (stereo unspecified) :: 2.84
NC(=O)CN1CCCN(C(=O)Cc2ccc(Br)cc2)CC1 :: -6.58

Given CCNC(=O)[C@@H]1C[C@H](NC(=O)Cc2ccsc2)CN1Cc1ccc(C)o1 , respond with its cytotoxicity at 10 µM.
-11.8

Given COc1ccc(CN2CCn3c(C(=O)N(C)C)cnc3C2)cc1 , respond with its cytotoxicity at 10 µM.
-69.6

Given Cn1nccc1C(=O)N1CCCC1c1[nH]ncc1C(N)=O (stereo unspecified) , respond with its cytotoxicity at 10 µM.
-15.2

Given CN(C)C(=O)N1CC2(CCN(S(C)(=O)=O)CC2)c2ccccc21 , respond with its cytotoxicity at 10 µM.
-121

Given COc1ccc(C(=O)CNC(=O)c2nc(Cl)sc2C(C)C)cc1 , respond with its cytotoxicity at 10 µM.
-3.15

Given Cc1cnn(CCNCc2cccnc2)c1 , respond with its cytotoxicity at 10 µM.
-0.265

Given Cc1ccc(C(=O)Nc2nnc(C(C)C)s2)c(-n2cnnn2)c1C , respond with its cytotoxicity at 10 µM.
-0.649

Given O=C(c1cscn1)N1C[C@@H]2[C@@H](C1)OCC(=O)N2CC1CCCC1 , respond with its cytotoxicity at 10 µM.
-10.2
